// data source = ChEMBL document CHEMBL4513216

INHIBITION overview
- System: Plasmodium berghei
- experimental-details: Screen against P. berghei liver stage (PbLuc), transformed with Luciferase, at 10uM
- Assay type: functional, HepG2
- reported-conditions: tested at 10 uM
Screen size: about 69,000 compounds; about 8,600 (12%) showed an effect of 50% or more. The entries come from a sample that favours strong results as a whole.
Returns: string containing the number followed by the unit.

> print(dat)
                                   compound  recorded.value
1  Cc1cc(C)c(C#N)c(N2CCC3(CCCN(CCO)C3=O)C2)n1 (configuration not stated)          -17.2%
2            CCc1ncnc2c1CCN(CC(=O)N(C)C)CC2           30.3%
3         CCN(C)c1ncnc2c1CCN(C(=O)N(C)C)CC2          -64.7%

Query: # return recorded INHIBITION for entry CC(C)c1cc(-c2cnn(C)c2C2CC2)c(C#N)c(N)n1
Reply: -14.3%

Query: Identify measured INHIBITION corresponding to Cc1n[nH]c(C)c1-c1cc(-c2cc[nH]c2)nc(N)c1C#N
Reply: 28%

Query: Note down INHIBITION recorded for Cc1n[nH]c(C)c1-c1cc(-c2cccc(O)c2)nc(N)c1C#N
Reply: 57.6%

Query: Using known records, supply INHIBITION for Cn1ncc(-c2cc(-c3cccc(O)c3)nc(N)c2C#N)c1C1CC1
Reply: 80%

Query: Report measured INHIBITION; entry is O=C(Nc1cccnc1)C1=NN(c2ccccc2)C(=O)CN1
Reply: -141%

Query: Name the recorded INHIBITION of the item Cc1n[nH]c(C)c1-c1cc(-c2ccc[nH]2)nc(N)c1C#N in your answer.
Reply: 7.22%

Query: Given Cc1ncnc2c1CCN(C(=O)CN(C)C)CC2 , respond with its INHIBITION.
Reply: 46.7%

Query: Given CN(C)C(=O)CN1CCc2ncnc(NC3CCC3)c2CC1 , respond with its INHIBITION.
Reply: 72.9%

Query: Answer with the recorded INHIBITION of Cc1noc(C2CCN(C(=O)C3CCCO3)CC2)n1 (configuration not stated) only.
Reply: 35.6%
